TESTED TARGET: UniProt:P34972
METHOD NOTES: Agonist activity at human cloned CB2 receptor expressed in CHO cells assessed as inhibition of forskolin-induced cAMP accumulation
READOUT TYPE: log10(EC50) (log10 of the value in nM)
Please be aware that the numbers have been log10-transformed from EC50 in nM.

Clc1ccc(-c2c[nH]c(-c3cccc(CN4CCCCC4)c3)n2)c(Cl)c1	1.38

Dear reader, for each entry below, please note its log10(EC50).
1. FC1(F)CCN(Cc2cccc(-c3nc(-c4cccc(C(F)(F)F)c4)c[nH]3)c2)CC1
2. FC1CCN(Cc2cccc(-c3nc(-c4ccc(Cl)cc4Cl)c[nH]3)c2)CC1
3. FC(F)(F)c1cccc(-c2cn(CC3CC3)c(-c3cccc(CN4CCOCC4)c3)n2)c1
4. CC1CN(Cc2cccc(-c3nc(-c4cccc(Cl)c4)c[nH]3)c2)CCO1 (centres undefined)
5. COc1ccc(-c2c[nH]c(-c3cccc(CN4CCC(F)(F)CC4)c3)n2)c(F)c1

Response:
1. 0.70
2. 1.00
3. 2.61
4. 1.15
5. 0.48

Would you mind giving log10(EC50) for every compound in the list below?
1. CC1CCCN(Cc2cccc(-c3nc(-c4cccc(C(F)(F)F)c4)c[nH]3)c2)C1 (centres undefined)
2. CC(C)n1cc(-c2cccc(C(F)(F)F)c2)nc1-c1cccc(CN2CCOCC2)c1

Response:
1. 1.85
2. 2.34

----------
Provide the reported log10(AUC(0-t) at 6 h) of each item.
METHOD NOTES: AUC (0 to 6 hrs) in rat at 10 mg/kg, po
Type: ADME, organism-based
Design: time < 6 hr, dose 10 mg/kg, route oral
RUN PARAMETERS: plasma
All values: base-10 log of AUC(0-t) at 6 h in µM·h.

As a guide, the following entries are already answered.
FC1(F)CCN(Cc2cccc(-c3nc(-c4cccc(C(F)(F)F)c4)c[nH]3)c2)CC1	0.05
CC1CCN(Cc2cccc(-c3nc(-c4cccc(C(F)(F)F)c4)c[nH]3)c2)CC1	-0.06
FC1CCN(Cc2cccc(-c3nc(-c4cccc(C(F)(F)F)c4)c[nH]3)c2)CC1	-0.28
CC1CN(Cc2cccc(-c3nc(-c4cccc(C(F)(F)F)c4)c[nH]3)c2)CCO1 (stereo unspecified)	0.30
Brc1cccc(-c2c[nH]c(-c3cccc(CN4CCOCC4)c3)n2)c1	-0.80
FC1CCCN(Cc2cccc(-c3nc(-c4cccc(C(F)(F)F)c4)c[nH]3)c2)C1 (stereo unspecified)	-0.17
FC(F)(F)c1cccc(-c2c[nH]c(-c3cccc(CN4CCCCC4)c3)n2)c1	-0.27
FC(F)(F)c1cccc(-c2c[nH]c(-c3cccc(CN4CCOCC4)c3)n2)c1	-0.06

I would be grateful if you could provide log10(AUC(0-t) at 6 h) for each of the following entries.
1. FC1(F)CCCN(Cc2cccc(-c3nc(-c4cccc(C(F)(F)F)c4)c[nH]3)c2)C1
2. FC(F)(F)c1cccc(-c2c[nH]c(-c3cccc(CN4CCSCC4)c3)n2)c1
3. CC1CCCN(Cc2cccc(-c3nc(-c4cccc(C(F)(F)F)c4)c[nH]3)c2)C1 (stereo unspecified)

Response:
1. -0.07
2. -1.38
3. 0.15

----------
TESTED TARGET: Cannabinoid receptor 2 (Homo sapiens)
Sequence (P34972 whole entry): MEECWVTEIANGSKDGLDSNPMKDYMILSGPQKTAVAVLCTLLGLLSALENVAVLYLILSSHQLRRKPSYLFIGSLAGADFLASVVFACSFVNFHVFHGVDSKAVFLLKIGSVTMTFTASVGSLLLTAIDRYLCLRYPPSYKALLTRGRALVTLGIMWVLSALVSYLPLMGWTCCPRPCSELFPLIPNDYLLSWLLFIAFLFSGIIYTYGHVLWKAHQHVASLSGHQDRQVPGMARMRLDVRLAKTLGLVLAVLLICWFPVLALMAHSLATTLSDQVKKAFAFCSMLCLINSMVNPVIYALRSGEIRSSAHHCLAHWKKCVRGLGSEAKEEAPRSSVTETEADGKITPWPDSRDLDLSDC
METHOD NOTES: Agonist activity at human cloned CB2 receptor expressed in CHO cells assessed as inhibition of forskolin-induced cAMP accumulation
Format: functional, cell-based
Rule: measured EC50 below 9 nM gets satisfied; anything equal to or greater than 9 nM gets not satisfied.

COc1ccc(F)c(-c2c[nH]c(-c3cccc(CN4CCCCC4)c3)n2)c1	satisfied
FC1CCCN(Cc2cccc(-c3nc(-c4cccc(C(F)(F)F)c4)c[nH]3)c2)C1 (stereo not given)	not satisfied
CCOc1ccc(F)c(-c2c[nH]c(-c3cccc(CN4CCCCC4)c3)n2)c1	not satisfied
FC(F)(F)c1cccc(-c2c[nH]c(-c3cccc(CN4CCSCC4)c3)n2)c1	satisfied
CC1CN(Cc2ccccc2-c2nc(-c3cccc(C(F)(F)F)c3)c[nH]2)CCO1 (stereo not given)	not satisfied
FC(F)(F)c1cccc(-c2cn(Cc3ccccc3)c(-c3cccc(CN4CCOCC4)c3)n2)c1	not satisfied

Prompt: Just wondering, is EC50 of CC1CCN(Cc2cccc(-c3nc(-c4cccc(C(F)(F)F)c4)c[nH]3)c2)CC1 below 9 nM?
Response: not satisfied

Prompt: Decide: EC50 of FC1CCN(Cc2ccccc2-c2nc(-c3cccc(C(F)(F)F)c3)c[nH]2)CC1 strictly below 9 nM?
Response: not satisfied

Prompt: Please let me know if FC1CCN(Cc2cccc(-c3nc(-c4cccc(Cl)c4)c[nH]3)c2)CC1 shows EC50 below 9 nM.
Response: satisfied
